Assayed system: T1, rhCD39-ECD-His (R&D Systems) (human, UniProt P49961 38-478)
T1 construct: Bought protein; that entry runs on through the C-terminal transmembrane and cytoplasmic residues; also called recombinant human CD39 extracellular domain; soluble recombinant human CD39 (ENTDP1) ECD; not shown: His tag
T1 sequence: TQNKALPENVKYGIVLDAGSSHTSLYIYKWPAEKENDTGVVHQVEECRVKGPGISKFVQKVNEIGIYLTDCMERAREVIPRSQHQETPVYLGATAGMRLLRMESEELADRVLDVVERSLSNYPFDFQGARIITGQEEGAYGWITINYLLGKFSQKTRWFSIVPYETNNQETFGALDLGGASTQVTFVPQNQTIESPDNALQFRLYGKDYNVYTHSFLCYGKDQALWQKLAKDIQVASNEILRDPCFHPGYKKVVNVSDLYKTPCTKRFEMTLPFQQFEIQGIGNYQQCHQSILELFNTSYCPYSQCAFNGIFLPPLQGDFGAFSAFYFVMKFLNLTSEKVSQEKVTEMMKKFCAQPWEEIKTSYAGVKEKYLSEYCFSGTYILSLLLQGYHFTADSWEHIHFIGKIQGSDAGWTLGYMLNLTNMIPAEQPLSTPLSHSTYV
Measurement notes: BLI (Octet), IgG on anti-human Fc sensor, rhCD39-ECD-His 10-300 nM, 1:1 fit
Attribute: pKd
Give only the number. pKd is defined as minus log10 of concentration in molar units.

response.value for 27571 (antibody, V domains shown) VH: QVQLVQSGAEVKKPGSSVKASCKASGGTFSSYAISWVRQAPGQGLEWMGSIIPIFGTANYAQKFRGRVTITADESTSTTYMELSSLRSEDTAVYYCARESGGYRDHRLDVWGQGTMVTVSS VL: EIVMTQSPATLSVSPGERATLSCRASQSVGSNLAWYQQKPGQAPRLLIYGASTRATGIPARFSGSGSGTEFTLTISSLQSEDFAVYYCQQYLIWPLTFGGGTKVEIK (field: pKd) = 7.79

Record summary for 27589 (antibody, V domains shown) VH: QVQLVQSGAEVKKPGSSVKVSCKASGGTFSSYAISWVRQAPGQGLEWMGGIIPIFGTANYAQKFQGRVTITADESTSTAYMELSSLRSEDTAVYYCARDSGYHRHYSDYWGQGTLVTVSS VL: DIQMTQSPSTLSASVGDRVTITCRASQSISSWLAWYQQKPGKAPKLLIYKASSLESGVPSRFSGSGSGTEFTLTISSLQPDDFATYYCQQYGLFPITFGGGTKVEIKR : reported pKd = 6.72

Entry under test: 31861 (antibody, V domains shown) VH: QVQLVQSGAEVKKPGSSVKVSCKASGGTFGSYGISWVRQAPGQGLEWMGSIIPEFGIANYAQKFQGRVTITADESTSTAYMELSSLRSEDTAVYYCARESGTYRDHRLDVWGQGTMVTVSS VL: EIVMTQSPATLSVSPGERATLSCRASQSVGSNLAWYQQKPGQAPRLLIYGASTRATGIPARFSGSGSGTEFTLTISSLQSEDFAVYYCQQYLLWPLTFGGGTKVEIKR . Its pKd was 8.94
